biological target: Protein-S-isoprenylcysteine O-methyltransferase (Homo sapiens, UniProt O60725)
Sequence (O60725 whole entry): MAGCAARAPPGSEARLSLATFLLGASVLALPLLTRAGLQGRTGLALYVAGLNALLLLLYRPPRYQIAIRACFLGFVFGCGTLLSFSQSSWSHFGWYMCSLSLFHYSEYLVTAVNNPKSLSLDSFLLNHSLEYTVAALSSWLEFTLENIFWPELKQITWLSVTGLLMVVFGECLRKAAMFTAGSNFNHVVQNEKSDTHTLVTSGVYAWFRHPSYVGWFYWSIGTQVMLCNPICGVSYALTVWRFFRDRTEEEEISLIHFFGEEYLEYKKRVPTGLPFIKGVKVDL
pIC50: −log10 of the molar value.
MEASURE: pIC50

>>> df
                                   compound  numeric_value
0  COc1cc(Cl)ccc1OCCOc1cccc(-n2ccnc2C)c1 [US11834430, Compound 45]           7.12
